Test system: UACC-257 melanoma
Assay: NCI tumour cell line growth inhibition, 48 h
Kindly state GI50 for each of the entries shown.

Look up GI50: `O=C1C=C(Nc2cccc(Br)c2)c2ccccc2C1=O`
5.99 µM

Look at this molecule and give its reported GI50. `COC(=O)c1cc(Nc2ccc(O)c3c2C(=O)c2c([N+](=O)[O-])ccc(O)c2C3=O)cc(C(=O)OC)c1`
3.23 µM

Which GI50 is reported for this molecule? COc1ccccc1C1C(C#N)=C(N)OC2=C1C(=O)CCC2 (stereo not drawn)
> 100 µM

Please give the measured GI50 for this molecule: `O=c1oc(-c2ccc(O)c(O)c2)cc2cc(O)cc(O)c12`
38 µM

What does the record list as GI50 for `Oc1ccc2ccccc2c1-c1nnc(CCCCCCCCc2nnc(-c3c(O)ccc4ccccc34)o2)o1` ?
2.26 µM

Fill in the blank: the reported GI50 of `CCN(CC)CCC(=O)Nc1ccc(Cn2nnc3c2C(=O)c2nnn(Cc4ccc(NC(=O)CCN(CC)CC)cc4)c2C3=O)cc1` is ____.
1.01 µM

Record request: GI50 value, item `CCCCCCCCCCCCCCCC[N+]1(CC)CCCC1`
1.58 µM

Fill in the blank: the reported GI50 of `COc1ccc(C[C@H]2C[C@@H](O)[C@@H](C)C/C=C/Cc3cccc(O)c3C(=O)O2)cn1` is ____.
21.5 µM

====

Tested on: DMS 273 small cell lung
Test: NCI tumour cell line growth inhibition, 48 h
For each record, write down the corresponding TGI.
Reply numerically in µM, unit not repeated.

Returns the measured TGI for the input molecule. Input: `O=C1c2c(O)cccc2C(C(=O)CCCCC(=O)C2c3cccc(O)c3C(=O)c3c(O)cccc32)c2cccc(O)c21`
4.51

Entry `CCCCN(CCCC)C(=NCc1ccccc1)NC#N` : reported TGI = ?
75.7

// query TGI value for entry CC(C)(CN1CCCCC1)C(=O)CC(SCCS(=O)(=O)O)c1ccc(Br)cc1 (stereo unspecified)
3.58

What does the record list as TGI for `NC1=NS(=O)(=O)N=C(N)C1=Cc1ccc([N+](=O)[O-])o1` ?
30.3

Quick check: TGI of `CC(C)OP(=O)(OC(C)C)C(N(C)C)P(=O)(OC(C)C)OC(C)C.[Cl][Sn]([Cl])([Cl])[c]1ccccc1` ?
10.6

If you can, please state the reported TGI value of `Oc1cc2cc(-c3ccccc3)[nH]c2c2ccccc12` .
2.06

====

Kindly supply the reported TGI values for the records listed here.
System: HCC-2998 colon
Experiment: NCI tumour cell line growth inhibition, 48 h
The figure you give is taken to be in µM; do not add the unit.

Short answer please: TGI, HCC-2998 colon, entry `NC1=NS(=O)(=O)N=C(N)C1=Cc1ccc([N+](=O)[O-])o1`
45.8

What is its TGI for HCC-2998 colon? Entry: `Cc1ccc2c(c1)c(=O)c1c(NCCN(C)C)ccc3nnn2c31`
17

Form field - read-out: TGI; system: HCC-2998 colon; submitted item: `NC(N)=N/N=C(\c1ccc(Cl)cc1)C1CC1`
19.4

API: value(readout=TGI, system=HCC-2998 colon) for record `O=C1c2cccnc2C(=O)c2c1c(C(=O)OCCCN1CCOCC1)c1ccccn21`
3.15

Request - read-out TGI | tested on HCC-2998 colon | compound `N#Cc1c2c(c(N=[N+]=[N-])n3c1nc1ccccc13)CCCC2`
25.8

// fetch HCC-2998 colon TGI for `CC1(C)OC[C@@H](/C=C\CCO[Si](c2ccccc2)(c2ccccc2)C(C)(C)C)N1C(=O)c1ccccc1`
21.4

Param readout = TGI; param system = HCC-2998 colon; param query = `COc1ccc2cccc(C(=N)c3ccc(C)c4c3CCC4)c2c1` ; response: value
23.1
